System: Influenza B virus
TEST: Antiviral activity against influenza B virus assessed as inhibition of viral induced cytopathic effect
Type: functional, organism-based
OUTCOME MEASURE: EC50 (µM)

COMPOUND	OUTCOME MEASURE	OPERATOR	VAL
CCOC(=O)C1=C[C@@H](OC(CC)CC)[C@H](NC(C)=O)[C@@H](N)C1 [OSELTAMIVIR]	EC50	=	23
COC(=O)[C@@H]1NC(=O)[C@H]2NC(=O)[C@H](NC(=O)[C@@H]3NC(=O)[C@H]4NC(=O)[C@H](NC(=O)[C@H](n5cc(CO[C@H]6O[C@H](COC(C)=O)[C@@H](OC(C)=O)[C@H](OC(C)=O)[C@H]6NC(C)=O)nn5)c5ccc(O)c(c5)Oc5cc4cc(O)c5C)[C@H](O)c4ccc(cc4)Oc4cc3cc(c4O)Oc3ccc(cc3)[C@H]2O)c2ccc(O)c(c2)-c2c(O)cc(O)cc21	EC50	>	100
COC(=O)[C@@H]1NC(=O)[C@H]2NC(=O)[C@H](NC(=O)[C@@H]3NC(=O)[C@H]4NC(=O)[C@H](NC(=O)[C@H](n5cc(CO[C@H]6O[C@H](CO)[C@@H](O)[C@H](O)[C@H]6NC(C)=O)nn5)c5ccc(O)c(c5)Oc5cc4cc(O)c5C)[C@H](O)c4ccc(cc4)Oc4cc3cc(c4O)Oc3ccc(cc3)[C@H]2O)c2ccc(O)c(c2)-c2c(O)cc(O)cc21	EC50	=	32
COC(=O)[C@H]1NC(=O)[C@H]2NC(=O)[C@H](NC(=O)[C@@H]3NC(=O)[C@H]4NC(=O)[C@H](NC(=O)[C@H](n5cc(CO[C@@H]6O[C@@H](C)[C@H](O)[C@@H](O)[C@H]6O)nn5)c5ccc(O)c(c5)Oc5cc4cc(O)c5C)[C@H](O)c4ccc(cc4)Oc4cc3cc(c4O)Oc3ccc(cc3)[C@H]2O)c2ccc(O)c(c2)-c2c(O)cc(O)cc21	EC50	>	100

* * *

System: Influenza B virus
TEST: Antiviral activity against influenza B virus assessed as cell viability by cell based MTS assay
Assay type: functional, organism-based
Below: a set of entries, each annotated with reported EC50.

MOLECULE	EC50
COC(=O)[C@@H]1NC(=O)[C@H]2NC(=O)[C@H](NC(=O)[C@@H]3NC(=O)[C@H]4NC(=O)[C@H](NC(=O)[C@H](n5cc(CO[C@@H]6O[C@@H](C)[C@H](OC(C)=O)[C@@H](OC(C)=O)[C@H]6OC(C)=O)nn5)c5ccc(O)c(c5)Oc5cc4cc(O)c5C)[C@H](O)c4ccc(cc4)Oc4cc3cc(c4O)Oc3ccc(cc3)[C@H]2O)c2ccc(O)c(c2)-c2c(O)cc(O)cc21	> 100 µM
COC(=O)[C@@H]1NC(=O)[C@H]2NC(=O)[C@H](NC(=O)[C@@H]3NC(=O)[C@H]4NC(=O)[C@H](NC(=O)[C@H](n5cc(CO[C@H]6O[C@H](COC(C)=O)[C@@H](OC(C)=O)[C@H](OC(C)=O)[C@H]6OC(C)=O)nn5)c5ccc(O)c(c5)Oc5cc4cc(O)c5C)[C@H](O)c4ccc(cc4)Oc4cc3cc(c4O)Oc3ccc(cc3)[C@H]2O)c2ccc(O)c(c2)-c2c(O)cc(O)cc21	> 100 µM
COC(=O)[C@@H]1NC(=O)[C@H]2NC(=O)[C@H](NC(=O)[C@@H]3NC(=O)[C@H]4NC(=O)[C@H](NC(=O)[C@H](n5cc(CO[C@H]6O[C@H](COC(C)=O)[C@@H](OC(C)=O)[C@H](OC(C)=O)[C@@H]6OC(C)=O)nn5)c5ccc(O)c(c5)Oc5cc4cc(O)c5C)[C@H](O)c4ccc(cc4)Oc4cc3cc(c4O)Oc3ccc(cc3)[C@H]2O)c2ccc(O)c(c2)-c2c(O)cc(O)cc21	> 100 µM
CC(N)C12CC3CC(CC(C3)C1)C2 (stereo not drawn) [RIMANTADINE]	> 500 µM
CCOC(=O)C1=C[C@@H](OC(CC)CC)[C@H](NC(C)=O)[C@@H](N)C1 [OSELTAMIVIR]	27 µM
COC(=O)[C@H]1NC(=O)[C@H]2NC(=O)[C@H](NC(=O)[C@@H]3NC(=O)[C@H]4NC(=O)[C@H](NC(=O)[C@H](N=[N+]=[N-])c5ccc(O)c(c5)Oc5cc4cc(O)c5C)[C@H](O)c4ccc(cc4)Oc4cc3cc(c4O)Oc3ccc(cc3)[C@H]2O)c2ccc(O)c(c2)-c2c(O)cc(O)cc21	> 100 µM
COC(=O)[C@@H]1NC(=O)[C@H]2NC(=O)[C@H](NC(=O)[C@@H]3NC(=O)[C@H]4NC(=O)[C@H](NC(=O)[C@H](n5cc(CO[C@H]6O[C@H](COC(C)=O)[C@@H](O[C@H]7O[C@H](COC(C)=O)[C@@H](OC(C)=O)[C@H](OC(C)=O)[C@H]7OC(C)=O)[C@H](OC(C)=O)[C@H]6OC(C)=O)nn5)c5ccc(O)c(c5)Oc5cc4cc(O)c5C)[C@H](O)c4ccc(cc4)Oc4cc3cc(c4O)Oc3ccc(cc3)[C@H]2O)c2ccc(O)c(c2)-c2c(O)cc(O)cc21	> 100 µM
COC(=O)[C@@H]1NC(=O)[C@H]2NC(=O)[C@H](NC(=O)[C@@H]3NC(=O)[C@H]4NC(=O)[C@H](NC(=O)[C@H](n5cc(CO[C@H]6O[C@H](CO)[C@@H](O)[C@H](O)[C@@H]6O)nn5)c5ccc(O)c(c5)Oc5cc4cc(O)c5C)[C@H](O)c4ccc(cc4)Oc4cc3cc(c4O)Oc3ccc(cc3)[C@H]2O)c2ccc(O)c(c2)-c2c(O)cc(O)cc21	≥ 50 µM

* * *

Tested on: Staphylococcus aureus
TEST: Antibacterial activity against methicillin-[…] Staphylococcus aureus ATCC 29213 by broth microdilution method
Assay type: functional
Here the recorded MBC is given for each entry.
OUTCOME MEASURE: MBC (µg/mL)

SMILES NOTATION	TGT	OUTPUT UNIT	VAL
COC(=O)[C@@H]1NC(=O)[C@H]2NC(=O)[C@H](NC(=O)[C@@H]3NC(=O)[C@H]4NC(=O)[C@H](NC(=O)[C@H](n5cc(CO[C@@H]6O[C@@H](C)[C@H](OC(C)=O)[C@@H](OC(C)=O)[C@H]6OC(C)=O)nn5)c5ccc(O)c(c5)Oc5cc4cc(O)c5C)[C@H](O)c4ccc(cc4)Oc4cc3cc(c4O)Oc3ccc(cc3)[C@H]2O)c2ccc(O)c(c2)-c2c(O)cc(O)cc21	Staphylococcus aureus	µg/mL	32
COC(=O)[C@@H]1NC(=O)[C@H]2NC(=O)[C@H](NC(=O)[C@@H]3NC(=O)[C@H]4NC(=O)[C@H](NC(=O)[C@H](n5cc(CO[C@H]6O[C@H](CO)[C@@H](O)[C@H](O)[C@H]6NC(C)=O)nn5)c5ccc(O)c(c5)Oc5cc4cc(O)c5C)[C@H](O)c4ccc(cc4)Oc4cc3cc(c4O)Oc3ccc(cc3)[C@H]2O)c2ccc(O)c(c2)-c2c(O)cc(O)cc21	Staphylococcus aureus	µg/mL	2
COC(=O)[C@@H]1NC(=O)[C@H]2NC(=O)[C@H](NC(=O)[C@@H]3NC(=O)[C@H]4NC(=O)[C@H](NC(=O)[C@H](n5cc(CO[C@H]6O[C@H](COC(C)=O)[C@@H](OC(C)=O)[C@H](OC(C)=O)[C@H]6OC(C)=O)nn5)c5ccc(O)c(c5)Oc5cc4cc(O)c5C)[C@H](O)c4ccc(cc4)Oc4cc3cc(c4O)Oc3ccc(cc3)[C@H]2O)c2ccc(O)c(c2)-c2c(O)cc(O)cc21	Staphylococcus aureus	µg/mL	8

* * *

Tested on: Staphylococcus epidermidis
TEST: Antibacterial activity against Staphylococcus epidermidis by broth microdilution method
Format: functional

SMILES NOTATION	MBC
COC(=O)[C@H]1NC(=O)[C@H]2NC(=O)[C@H](NC(=O)[C@@H]3NC(=O)[C@H]4NC(=O)[C@H](NC(=O)[C@H](N=[N+]=[N-])c5ccc(O)c(c5)Oc5cc4cc(O)c5C)[C@H](O)c4ccc(cc4)Oc4cc3cc(c4O)Oc3ccc(cc3)[C@H]2O)c2ccc(O)c(c2)-c2c(O)cc(O)cc21	8 µg/mL
COC(=O)[C@@H]1NC(=O)[C@H]2NC(=O)[C@H](NC(=O)[C@@H]3NC(=O)[C@H]4NC(=O)[C@H](NC(=O)[C@H](n5cc(CO[C@H]6O[C@H](CO)[C@@H](O)[C@H](O)[C@@H]6O)nn5)c5ccc(O)c(c5)Oc5cc4cc(O)c5C)[C@H](O)c4ccc(cc4)Oc4cc3cc(c4O)Oc3ccc(cc3)[C@H]2O)c2ccc(O)c(c2)-c2c(O)cc(O)cc21	8 µg/mL
COC(=O)[C@@H]1NC(=O)[C@H]2NC(=O)[C@H](NC(=O)[C@@H]3NC(=O)[C@H]4NC(=O)[C@H](NC(=O)[C@H](n5cc(CO[C@H]6O[C@H](CO)[C@@H](O)[C@H](O)[C@H]6O)nn5)c5ccc(O)c(c5)Oc5cc4cc(O)c5C)[C@H](O)c4ccc(cc4)Oc4cc3cc(c4O)Oc3ccc(cc3)[C@H]2O)c2ccc(O)c(c2)-c2c(O)cc(O)cc21	4 µg/mL
COC(=O)[C@@H]1NC(=O)[C@H]2NC(=O)[C@H](NC(=O)[C@@H]3NC(=O)[C@H]4NC(=O)[C@H](NC(=O)[C@H](n5cc(CO[C@@H]6O[C@@H](C)[C@H](OC(C)=O)[C@@H](OC(C)=O)[C@H]6OC(C)=O)nn5)c5ccc(O)c(c5)Oc5cc4cc(O)c5C)[C@H](O)c4ccc(cc4)Oc4cc3cc(c4O)Oc3ccc(cc3)[C@H]2O)c2ccc(O)c(c2)-c2c(O)cc(O)cc21	8 µg/mL
COC(=O)[C@H]1NC(=O)[C@H]2NC(=O)[C@H](NC(=O)[C@@H]3NC(=O)[C@H]4NC(=O)[C@H](NC(=O)[C@H](n5cc(CO[C@@H]6O[C@@H](C)[C@H](O)[C@@H](O)[C@H]6O)nn5)c5ccc(O)c(c5)Oc5cc4cc(O)c5C)[C@H](O)c4ccc(cc4)Oc4cc3cc(c4O)Oc3ccc(cc3)[C@H]2O)c2ccc(O)c(c2)-c2c(O)cc(O)cc21	32 µg/mL
COC(=O)[C@@H]1NC(=O)[C@H]2NC(=O)[C@H](NC(=O)[C@@H]3NC(=O)[C@H]4NC(=O)[C@H](NC(=O)[C@H](n5cc(CO[C@H]6O[C@H](CO)[C@@H](O[C@H]7O[C@H](CO)[C@@H](O)[C@H](O)[C@H]7O)[C@H](O)[C@H]6O)nn5)c5ccc(O)c(c5)Oc5cc4cc(O)c5C)[C@H](O)c4ccc(cc4)Oc4cc3cc(c4O)Oc3ccc(cc3)[C@H]2O)c2ccc(O)c(c2)-c2c(O)cc(O)cc21	2 µg/mL

The origin of these recorded values is ChEMBL document CHEMBL1158551.
